Method Summary: NCI Yeast Anticancer Drug Screen. Data for the sgs1 mgt1 strain (AID 161);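 further: 0% = growth of cultures given vehicle only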
Run Parameters: S. cerevisiae sgs1 mgt1 strain, at 50.0 µM
The panel holds about 79,000 compounds, 15% with a hit somewhere; the sample as a whole holds those more often. Calls of active or inactive are those of the source. No stated cut-off is given here; in the data, active means growth inhibition above about 70%; inactive means the rest.
Select the correct class. Options are active, inactive and nothing else.

Compound: O=C(Nc1ccccc1)OCCN=c1c2ccccc2ccc2ccccc12
Assigned Class: active

For O=[N+]([O-])C1=Cc2cc(Cl)ccc2OC1c1cccc2ccccc12 (stereo unspecified) , which call appears in the assay record? active

Request: COc1ccc(-c2c(CO)cc(OC)c(OC)c2OC)c(CO)c1 inactive

Request: O=C1c2ccccc2-c2cc(S)c([N+](=O)[O-])cc21 inactive

Request: Nc1nc(-c2ccc(Cl)cc2)c(N=Nc2ccc(Br)cc2)s1 active

Request: Oc1ccc2c(c1O)/C(=C/C=NCC1(O)OCC(O)C(O)C1O)C=N2 (stereo unspecified) active

Request: O=C(Nc1ncnc2c1ncn2C1CC(O)C(CO)O1)c1ccccc1 (stereo unspecified) inactive

Request: CC(=N/NC(=S)NCC(C)C)/C(C)=N\Nc1ccc(Cl)cc1 active

Request: CC(C)(C)c1ccc(Br)c(CCC(=O)NO)c1 active

Request: C/C=C1/C=CC2c3[nH]c4ccccc4c3CCN2C1 (stereo unspecified) inactive

Request: COc1ccc2c(C)cc(N/N=C/c3cccc(C)n3)nc2c1 active

====

Assignment: determine reported growth inhibition for the given compounds.
Method Summary: NCI Yeast Anticancer Drug Screen. Data for the mlh1 rad18 strain (AID 175)
Run Parameters: S. cerevisiae mlh1 rad18 strain growth inhibition; at 50.0 µM; active compounds read high
Protocol: Growth inhibition of yeast strains with defined genetic alterations is measured as a screen for potential anti-cancer activity. Selected strains with alterations in DNA damage repair or cell cycle control were exposed to compounds and growth inhibition was measured relative to vehicle treated controls. The strain used in this assay is mlh1 rad18
About 79,000 compounds went through this panel and 15% of them were active in at least one assay; those are over-represented in the sample as a whole.
One number for each entry, in %.

// worked examples, growth inhibition included
Compound: COC(=O)NC1CCCCCCCCCCC1I (stereo not given)
Unit: %
growth inhibition: 99

Compound: CC1=CC(=O)C(O)=C/C1=C\C=C\c1ccccc1
Unit: %
growth inhibition: 99.2

// each compound listed below needs its growth inhibition
1. Cc1ccc(S(=O)(=O)N/N=C/Cc2ccccc2)cc1
2. Oc1cc(F)ccc1-c1ccc(F)cc1
3. O=C(/C=C/c1ccccc1)CCN1CCC2CCC(C2)C1 (stereo not given)
4. Cc1ccc(C(=O)CC(N)C(=O)O)cc1 (stereo not given)
5. CCCCCN(CCCCC)CCNc1ccc(C)c2sc3ccccc3c(=O)c12

1: 85.3; 2: 84.7; 3: 79.5; 4: 8.95; 5: 97

====

Method Summary: NCI Yeast Anticancer Drug Screen. Data for the bub3 strain (AID 167)
Run Parameters: S. cerevisiae bub3 mutant strain, at 50.0 µM (retest, dose inferred, filed as 5.0), active compounds read high
Compounds without any hit were thinned out: in the full panel of roughly 79,000, 15% have a hit. Active and inactive are the calls of the source. No stated cut-off is given here; in the data, active means growth inhibition above about 70%; inactive means the rest.
Experimental Readout: growth inhibition

// worked examples, growth inhibition included
Compound: CCOc1c(N=Nc2ccc(OC)cc2)c(-c2ccccc2)nn1C(N)=S
growth inhibition: 71% (active)

Compound: COC(=O)/C=C(\Cl)C(=O)OC
growth inhibition: 97% (active)

Compound: NC(=O)N/N=C/C(O)C(O)C(O)C(O)CO (stereo unspecified)
growth inhibition: 7% (inactive)

Compound: O=C1C(CCl)=CS(=O)(=O)c2ccccc21
growth inhibition: 99% (active)

Compound: O=[N+]([O-])c1ccc(S(=O)(=O)C/C=C/CCl)c([N+](=O)[O-])c1
growth inhibition: 99% (active)

// each compound listed below needs its growth inhibition
1. O=[N+]([O-])c1ccc(-c2cccc(Cl)c2)c([N+](=O)[O-])c1
2. CN(C)C(=S)/N=c1\ss/c(=N\S(=O)(=O)c2ccccc2)n1-c1ccccc1
3. O=C(COc1ccc2ccccc2c1)NC1c2ccccc2Oc2ccccc21
4. CC(CN(C)C)C(/C=C/c1ccc(Cl)c(Cl)c1)=N\Nc1ccccc1 (stereo unspecified)
5. COc1cc(O)c2c(c1)C(=O)c1cc3c(c(O)c1C2=O)C(OC1OC(C)C(O)C(O)C1OC)C(OC)C(C)(O)C3=O (stereo unspecified)

["99% (active)", "-2% (inactive)", "96% (active)", "91% (active)", "99% (active)"]

// each compound listed below needs its growth inhibition
1. [Fe+2].c1cc[cH-]c1.c1ccc(-c2ccc[cH-]2)cc1
2. C=CC[P+](CC[P+](CC=C)(c1ccccc1)c1ccccc1)(c1ccccc1)c1ccccc1
3. O=C1/C(=C/c2ccc3c(c2)OCO3)Sc2scc(-c3ccc(O)c(O)c3)[n+]21
4. O=C1CCC(Cc2ccc(I)cc2)C(=O)N1 (stereo unspecified)
5. O=C(NCCN1CCCC1)c1cn2c(ccc3sc4ccccc4c(=O)c32)n1
6. CCC(=O)NC1=C(Cl)C(=O)c2ccccc2C1=O

41% (inactive)
-3% (inactive)
98% (active)
-5% (inactive)
76% (active)
99% (active)
